Before we begin, note that these IC50 values for BTK (Homo sapiens) originate from several publications.
observable: IC50

compound="O=C([C@H](Nc1cc(Cl)cc(Cl)c1)C1CC1)N1CCC2CCN(c3ncnc4[nH]ccc34)C2C1 (stereo partly drawn)" observable=IC50 observed_measurement="< 100 nM"
compound=C[C@@H]1[C@H](Nc2ncnc3[nH]ncc23)CCCN1C(=O)CNc1cc(F)cc(Cl)c1 observable=IC50 observed_measurement="< 100 nM"
compound=Cn1cc(-c2cn3nccc3c(-c3ccc(CNC(=O)c4noc(C5(C)CC5)n4)cc3)n2)cn1 observable=IC50 observed_measurement="< 1 nM"
compound="Cc1cc(-c2ccnc(Nc3cnn(C)c3)n2)ccc1C(CO)NC(=O)c1cc2c(s1)CCOC2 (stereo not drawn)" observable=IC50 observed_measurement="10 to 99 nM"
compound=C=CC(=O)Nc1cccc(Oc2nc(Nc3ccc(N4CCC(N5CCCC5)CC4)nc3)nc3ccsc23)c1 observable=IC50 observed_measurement="50 to 100 nM"
compound=Cn1cc(C(F)(F)F)c(-c2ccc(S(=O)(=O)NCc3c[nH]c4ncccc34)s2)n1 observable=IC50 observed_measurement="≤ 10000 nM"
compound=N#Cc1cnc2[nH]cc(C(=O)c3cccc(NS(=O)(=O)N4CCCC4)c3F)c2c1 observable=IC50 observed_measurement="≤ 10000 nM"
compound=C=CC(=O)N(C)c1cccc(-n2c(=O)n(-c3ccc(OC4CC4)cc3)c3c(N)ncnc32)c1 observable=IC50 observed_measurement="< 100 nM"
compound=CCS(=O)(=O)Nc1ccc(F)c(C(=O)c2c[nH]c3ncc(-c4ccc(F)cc4)cc23)c1F observable=IC50 observed_measurement="≤ 10000 nM"

----------
Listed below are molecules with IC50 for UniProt Q06187, each taken from published literature.
observable: IC50

molecule=N#Cc1cnc2[nH]cc(C(=O)c3cccc(NS(=O)(=O)c4cccc(F)c4)c3F)c2c1 experimental_system="UniProt Q06187" observed_measurement="≤ 10 µM"
molecule="Cn1c(C(=O)NC2CCCc3cc(-c4ncnc5[nH]ncc45)ccc32)nc2ccccc21 (centres unmarked)" experimental_system="UniProt Q06187" observed_measurement="0.1 to 0.999 µM"
molecule=COc1cc(-n2c(=O)n(-c3ccc(N(C)C(=O)/C=C/CN(C)C)cc3)c3ncnc(N)c32)ccc1C experimental_system="UniProt Q06187" observed_measurement="< 0.1 µM"
molecule=CNc1cccc(Nc2ncc3cc(-c4c(C)cc[nH]c4=O)ccc3n2)c1 experimental_system="UniProt Q06187" observed_measurement="< 0.1 µM"
molecule=O=C(c1ccccc1F)c1c[nH]c2ncc(-c3ccsc3)cc12 experimental_system="UniProt Q06187" observed_measurement="≤ 10 µM"
molecule=C=CC(=O)N1CC[C@]2(C1)C[C@H](n1c(NC(=O)c3cnc(C)s3)nc3cc(CN[C@@H](C)C(C)(C)C)ccc31)C2 experimental_system="UniProt Q06187" observed_measurement="0.00236 µM"
molecule=C=CC(=O)Nc1cccc(-c2cc(C)cc(Nc3cc(CC)[nH]n3)n2)c1 experimental_system="UniProt Q06187" observed_measurement="0.0109 µM"
molecule="O=C(CNc1cccc2ccncc12)NC1CCCN(c2ncnc3[nH]ccc23)C1 (centres unmarked)" experimental_system="UniProt Q06187" observed_measurement="> 10 µM"
molecule=C=CC(=O)N1CC[C@]2(C1)C[C@H](n1c(NC(=O)c3ccc(-c4cnco4)s3)nc3cc(CN[C@H]4C[C@H](O)C4)ccc31)C2 experimental_system="UniProt Q06187" observed_measurement="0.00053 µM"
molecule=C=CC(=O)N[C@H]1CC[C@@H](Nc2nc(Nc3cc(C)ns3)nc3ccsc23)CC1 experimental_system="UniProt Q06187" observed_measurement="≤ 0.05 µM"
molecule=C=CC(=O)N1CCC[C@@H](n2nc(-c3ccc(C(=O)Nc4ccccc4)cc3)c3c(N)ncc(-c4cn[nH]c4)c32)C1 experimental_system="UniProt Q06187" observed_measurement="0.0044 µM"
molecule=CC#CC(=O)N[C@@H](C)c1nc(-c2ccc(C(=O)Nc3cc(C(F)(F)F)ccn3)cc2)c2c(N)nccn12 experimental_system="UniProt Q06187" observed_measurement="0.0018 µM"
molecule=C=CC(=O)N1CCc2c(cccc2-c2c(F)cc(C(N)=O)c3[nH]c4c(c23)CCN(C)CC4)C1 experimental_system="UniProt Q06187" observed_measurement="0.01 to 0.1 µM"
molecule=CC(C)(C)c1ccc(C(=O)NCc2ccc(-c3ncnc4[nH]ccc34)cc2Cl)nc1 experimental_system="UniProt Q06187" observed_measurement="0.01 to 0.099 µM"
molecule="Nc1ncnc2c1cnn2C1CCCN(C(=O)CNc2cc(Cl)cc(Cl)c2)C1 (centres unmarked)" experimental_system="UniProt Q06187" observed_measurement="> 10 µM"
molecule=CC(C)(C)c1ccc(C(=O)NCc2ccc(-c3ncnc4[nH]c(-c5ccc(C(=O)N6CCOCC6)cc5)cc34)cc2)cc1 experimental_system="UniProt Q06187" observed_measurement="< 0.01 µM"
molecule=C=CC(=O)N(C)c1cccc(Oc2ncnc3[nH]c(-c4ccc(N5CCOCC5)cc4)cc23)c1 experimental_system="UniProt Q06187" observed_measurement="< 0.1 µM"
molecule="Cn1cc(Nc2cc(-c3ccc4c(c3)CCCC4NC(=O)c3cnc(C(C)(C)C)s3)ncn2)cn1 (centres unmarked)" experimental_system="UniProt Q06187" observed_measurement="0.01 to 0.099 µM"
molecule=O=C(CNC1c2ccccc2-c2ccccc21)N[C@@H]1CCCN(c2ncnc3[nH]ccc23)C1 experimental_system="UniProt Q06187" observed_measurement="1 to 10 µM"
molecule=C=CC(=O)N1CCC[C@@H](n2nc(C(=O)Nc3nc4cc(Cl)ccc4o3)c3c(N)nccc32)C1 experimental_system="UniProt Q06187" observed_measurement="0.0034 µM"
molecule=CC(C)n1cc(Nc2nccc(-c3ccc(CNC(=O)N4CC(OC(C)(C)C)C4)c(C(F)(F)F)c3)n2)cn1 experimental_system="UniProt Q06187" observed_measurement="< 0.01 µM"
molecule=C[C@H]1CNC(=O)c2cnn3c(N)c(-c4ccc(NC(=O)OCC5CC5)cc4)c(nc23)NCc2cc(F)cnc2O1 experimental_system="UniProt Q06187" observed_measurement="0.033 µM"
molecule=CN1CC(n2cc(Nc3nccc(-c4ccc(CNC(=O)c5cnn(C(C)(C)C)c5)c(C(F)(F)F)c4)n3)cn2)C1 experimental_system="UniProt Q06187" observed_measurement="< 0.01 µM"

----------
Here is a set of compounds with reported IC50 for UniProt:Q06187, compiled from the literature.
observable: IC50

compound="C=CC(=O)N1CCc2c(cccc2-c2c(F)cc(C(N)=O)c3[nH]c4c(c23)C[S+]([O-])CC4)C1 (single isomer, unassigned)" observed_measurement="< 10 nM"
compound=C=CC(=O)N1CCC(Cn2nc(-c3ccc(Oc4ccccc4)cc3)c3cncnc32)CC1 observed_measurement="< 100 nM"
compound=Cc1cc(-c2ncnc3[nH]ccc23)cnc1CNC(=O)c1cc2c(s1)CCCC2 observed_measurement="10 to 99 nM"
compound="Cc1cc(-c2ncnc3cc(-c4cnn(C)c4)[nH]c23)ccc1C(CO)NC(=O)c1cnc(C(C)(C)C)s1 (stereo not drawn)" observed_measurement="< 10 nM"
compound=CN(C)S(=O)(=O)c1ccccc1NCC(=O)N[C@@H]1CCCN(c2ncnc3[nH]ccc23)C1 observed_measurement="100 to 999 nM"
compound=C=CC(=O)N1CCc2c(cccc2-c2ccc(C(N)=O)c3[nH]c4c(c23)CC2(CCC2)CC4)C1 observed_measurement="≥ 100 nM"
compound="O=C(CNc1ccccc1)N(CCc1ccccc1)C1CCCN(c2ncnc3[nH]ccc23)C1 (stereo not drawn)" observed_measurement="100 to 999 nM"
compound="COc1ccc(-c2nn(C3CCc4ccccc4C3)c3ncnc(N)c23)cc1OC (racemic)" observed_measurement="164 nM"
compound=CCOc1c(OCc2ccc(N(CC)CC)nc2)cccc1C(=O)c1c[nH]c2ncccc12 observed_measurement="≤ 10000 nM"

----------
IC50 for BTK (Homo sapiens, UniProt Q06187) - collated from the literature.
observable: IC50

compound="Cc1cc(-c2ccnc(Nc3cnn(C)c3)n2)ccc1C(C)NC(=O)c1cnc(C(C)(C)C)s1 (stereo not drawn)" observable=IC50 observed_measurement="< 0.01 µM"
compound=Nc1ncnc(N[C@H]2CCCN(C(=O)CNc3cc(Cl)cc(Cl)c3)C2)c1Cl observable=IC50 observed_measurement="> 10 µM"
compound="O=C(COc1ccccc1)NC1CCCN(c2ncnc3[nH]ccc23)C1 (stereo not drawn)" observable=IC50 observed_measurement="1 to 10 µM"
compound=COCCN(C)C/C=C/C(=O)N1CC[C@@H](n2c(C#N)c(-c3ccc(Oc4ccccc4)cc3)c3c(N)ncnc32)C1 observable=IC50 observed_measurement="< 0.1 µM"
compound=Cn1cc(-c2cnc3[nH]cc(C(=O)c4cccc(NS(=O)(=O)c5cccnc5)c4)c3c2)cn1 observable=IC50 observed_measurement="≤ 10 µM"
compound="C=CC(=O)N1CCc2c(-c3c(F)cc(C(N)=O)c4[nH]c(C)cc34)cccc2C1C1CC1 (stereo not drawn)" observable=IC50 observed_measurement="0.01 to 0.1 µM"
